tested on: COLO 205 colon; test: NCI tumour cell line growth inhibition, 48 h; in the data active = GI50 below about 0.43 µM; inactive = the rest
Labels: active, inactive

MOLECULE: CSc1nnc(CCSc2ccnc3c(C(F)(F)F)cccc23)o1
ASSAYED TARGET: COLO 205 colon
CLASS NAME: inactive
//
MOLECULE: CCN(CC)CCOc1ccc(C(=C(C)c2ccc(Cl)cc2)c2ccc(OCCN(CC)CC)cc2)cc1
ASSAYED TARGET: COLO 205 colon
CLASS NAME: inactive
//
MOLECULE: COc1ccccc1[N-]C(C1=C([O-])c2ccccc2C1=O)c1ccccc1.COc1ccccc1[N-]C(C1=C([O-])c2ccccc2C1=O)c1ccccc1.[Cu+2] (configuration not stated)
ASSAYED TARGET: COLO 205 colon
CLASS NAME: inactive
//
MOLECULE: COc1cc2c(cc1OC)-c1ccc3cc4c(cc3c1N(CCN1CCCC1)C2)OCO4
ASSAYED TARGET: COLO 205 colon
CLASS NAME: active
//
MOLECULE: CC1(C)CCC2(C(=O)OC3OC(CO)C(O)C(O)C3O)CC[C@]3(C)C(=CCC4C5(C)CC[C@H](OC6OC(C(=O)O)C(O)C(O)C6O)C(C)(C)C5CCC43C)C2C1 (some centres not stated)
ASSAYED TARGET: COLO 205 colon
CLASS NAME: inactive
//
MOLECULE: CN(C)c1ccc2nc3ccc(=[N+](C)C)cc-3oc2c1
ASSAYED TARGET: COLO 205 colon
CLASS NAME: active
//
MOLECULE: C=C1C(=O)O[C@@H]2C1CC(=O)C(C)CC/C=C(\C)CCC[C@H](C)[C@H]2OC(C)=O (some centres not stated)
ASSAYED TARGET: COLO 205 colon
CLASS NAME: inactive
//
MOLECULE: O=C(CCN1CCCC1)Nc1ccc2c(NCc3ccc(F)cc3)c3ccccc3nc2c1
ASSAYED TARGET: COLO 205 colon
CLASS NAME: active
//
MOLECULE: C=C(C)[C@@H]1CC[C@]2(C(=O)NCCCN)CC[C@]3(C)[C@H](CC[C@@H]4[C@@]5(C)CC[C@H](O)C(C)(C)[C@@H]5CC[C@]43C)[C@@H]12
ASSAYED TARGET: COLO 205 colon
CLASS NAME: inactive
//
MOLECULE: C=C(C)[C@@H]1CC=C(CO)CC1
ASSAYED TARGET: COLO 205 colon
CLASS NAME: inactive
//
MOLECULE: CC12CCC=CC1CCC1C2CCC2(C)C(c3ccc(=O)oc3)CCC12O (configuration not stated)
ASSAYED TARGET: COLO 205 colon
CLASS NAME: active
//
MOLECULE: N#CC(C#N)=CN1CCN(C(=O)c2ccco2)C1=S
ASSAYED TARGET: COLO 205 colon
CLASS NAME: inactive
//
MOLECULE: NC(=O)[C@H]1CCN(c2ncnc(N)c2F)C[C@@H]1N1CCC[C@@H](Nc2cc(Cl)cc(C(F)(F)F)c2)C1=O
ASSAYED TARGET: COLO 205 colon
CLASS NAME: inactive
//
MOLECULE: CCOC(=O)c1c2c(n(CC(C)C)c1C)-c1nc[nH]c1C(=O)C2=O
ASSAYED TARGET: COLO 205 colon
CLASS NAME: inactive
//
MOLECULE: N#CC(C#N)=Cc1ccc(-c2ccc(-c3nc4ccccc4s3)cc2)o1
ASSAYED TARGET: COLO 205 colon
CLASS NAME: inactive
//
MOLECULE: COc1cc2cc(Oc3ccc(NC(=O)Nc4ccc(Cl)c(C(F)(F)F)c4)cc3)c(C)nc2cc1OCCN1CCCCC1
ASSAYED TARGET: COLO 205 colon
CLASS NAME: inactive
//
MOLECULE: COc1ccc2c(c1)CC[C@@H]1[C@@H]2CC[C@]2(C)C(=O)C3(CCCCC3)C[C@@H]12
ASSAYED TARGET: COLO 205 colon
CLASS NAME: inactive
